Record form. Attribute: Sugarbeets plant response rating. Fill in for each entry.
# System: sugar beet
# ASSAY DETAILS: Test B pre/postemergence sugar beet
# Type: in vivo, Beta vulgaris
# TEST SETTINGS: Rate 62 g/ha, Postemergence; scale of 0 to 10 where 0 is no effect and 10 is complete control
Give bare numbers.

Observe how each entry below is paired with its result.
CC(C)N(C(=O)n1oc(=O)n(C2CCCC(C(F)(F)F)C2)c1=O)c1ccc(F)cc1 (stereo not shown) | 2
CCN(C(=O)n1oc(=O)n(C(C)C)c1=O)c1nncs1 | 0
CC1CC1Cn1c(=O)on(C(=O)N(c2ccc(F)cc2)C(C)C)c1=O (stereo not shown) | 1

Lookup: Given CC(C)N(C(=O)n1oc(=O)n(C(CF)CF)c1=O)c1ccc(F)cc1 , state its recorded Sugarbeets plant response rating.
Found: 0

* * *

# Tested on: pigweed
# ASSAY DETAILS: Test B pre/postemergence pigweed
# Assay type: in vivo, Amaranthus retroflexus
# TEST SETTINGS: Preemergence, Rate 62 g/ha; scale 0 to 10 (0 no effect, 10 complete control)
Record form. Attribute: Plant response rating, Redroot pigweed. Fill in for each entry.
Give bare numbers.

Observe how each entry below is paired with its result.
CC(C)N(C(=O)n1oc(=O)n(CCC(F)(F)F)c1=O)c1ccc(F)cc1 | 8
CC(C)N(C(=O)n1oc(=O)n(C(CF)CF)c1=O)c1ccc(F)cc1 | 8
Cc1nc(Cl)sc1C(C)n1c(=O)on(C(=O)N(c2ccc(F)cc2F)C(C)C)c1=O (stereo not shown) | 0

Please look at the following compound next.
Lookup: Given C=C[Si](C)(C)Cn1c(=O)on(C(=O)N(c2ccc(Cl)cc2)C(C)C)c1=O , state its recorded Plant response rating, Redroot pigweed.
Found: 0

* * *

# System: pigweed
# ASSAY DETAILS: Test B pre/postemergence pigweed
# Type: in vivo, Amaranthus retroflexus
# TEST SETTINGS: Postemergence, Rate 500 g/ha; scale of 0 to 10 where 0 is no effect and 10 is complete control
Record form. Attribute: Plant response rating, Redroot pigweed. Fill in for each entry.
Give bare numbers.

Each of the following entries comes with a recorded value; kindly state Plant response rating, Redroot pigweed for each.
1. CCOP(=O)(Cn1c(=O)on(C(=O)N(c2ccc(F)cc2)C(C)C)c1=O)OCC
2. COCn1c(=O)on(C(=O)N(c2ccccc2)C(C)C)c1=O
3. CCCCn1c(=O)on(C(=O)N(c2ccccc2)C(C)C)c1=O
4. CCOC(=O)CC(C(=O)OCC)n1c(=O)on(C(=O)N(c2ccc(F)cc2)C(C)C)c1=O (stereo not shown)

Found:
1: 0; 2: 9; 3: 4; 4: 0

* * *

# System: blackgrass
# ASSAY DETAILS: Test B pre/postemergence blackgrass
# Assay type: in vivo, Alopecurus myosuroides
# TEST SETTINGS: Postemergence, Rate 125 g/ha; scale 0 to 10, 0 is no effect, 10 is complete control
REPORTED ENDPOINT: Blackgrass plant response rating
Numbers only.

Observe how each entry below is paired with its result.
CC(C)C(=O)Cn1c(=O)on(C(=O)N(c2ccc(F)cc2F)C(C)C)c1=O [Compound 486] | 6
CCOCn1c(=O)on(C(=O)N(c2ccc(Cl)cc2)C(C)C)c1=O [Compound 534] | 2
CCCCn1c(=O)on(C(=O)N(c2ccccc2)C(C)C)c1=O [Compound 556] | 3

Lookup: Given COCCOCn1c(=O)on(C(=O)N(c2ccccc2)C(C)C)c1=O [Compound 564] , state its recorded Blackgrass plant response rating.
Found: 4
